- System: naturally aged mice
- experimental_details: Anti-aging evaluation in naturally aged mice, Example 31, Table 55
- Format: in vivo, mouse
- setup_conditions: joint, untreated = 1.0
measurement_label: Joint Col2a1 mRNA (fold)
Form entry: value (fold) — number only.

Worked set:
1) Cc1nc(-c2nc(-c3ccc(OC(F)(F)F)cc3)no2)nn1Cc1cccc(N2CCC(S(C)(=O)=O)CC2)c1
1.3
2) CCN(CC1C(=O)C2CCN1CC2)C(=O)C(Cl)(Cl)Cl (stereo not drawn)
2.4
3) C#CC(=O)N1[C@@H](CCCC)Cc2cc(OC)ccc2[C@@H]1c1ccc(NC23CC4CC(CC(C4)C2)C3)cc1
2.0
4) Nc1ccc(/C=C/C(=O)NCc2cc3cc(-c4ccc(C(=O)N5CCC(F)(F)CC5)cc4)cc(-c4ccc(F)cc4)c3o2)cn1
2.6
5) NC(=O)c1ncn([C@@H]2O[C@H](CO)[C@@H](O)[C@H]2O)n1
2.2
6) CCc1nc(C(N)=O)c(Nc2ccc(N3CCC(N4CCN(C)CC4)CC3)c(OC)c2)nc1NC1CCOCC1
2.1

// query // fetch Joint Col2a1 mRNA given entry Nc1ccc(O)c(C(=O)O)c1
// result 1.8

----------
- Test system: naturally aged mice
- experimental_details: Anti-aging evaluation in naturally aged mice, Example 31, Table 55
- Type: in vivo, mouse
- setup_conditions: untreated 0.82 g
measurement_label: Fat Mass (g)
Form entry: value (g) — number only.

1. CO[C@]1(C(=O)N[C@@H](C)c2ccc(-n3cc(F)cn3)nc2)CC[C@H](c2nc(C)cc(Nc3cc(C)[nH]n3)n2)CC1
0.95
2. Nc1ccc(/C=C/C(=O)NCc2cc3cc(-c4ccc(C(=O)N5CCC(F)(F)CC5)cc4)cc(-c4ccc(F)cc4)c3o2)cn1
0.96

// query // fetch Fat Mass given entry C[S+]([O-])CCCCN=C=S (centres unmarked)
// result 0.96

// query // fetch Fat Mass given entry S=C(N/N=C1\CCCc2cccnc21)N1CCN(c2ccccn2)CC1
// result 1.09

// query // fetch Fat Mass given entry O=C1C2CCN(CC2)C1(CO)COCc1ccccc1 (centres unmarked)
// result 0.93

----------
Measured viability at 1.1 µM values are reported for all entries that follow.
- Tested on: senescent cells
- experimental_details: Viability of senescent cells (CellTiter-Glo), Example 17, Table 13
- setup_conditions: Homo sapiens, read-out: Survival (%)
Form entry: value (%) — number only.

1. CCc1ccc(CCOc2ccc(CC3SC(=O)NC3=O)cc2)nc1 (centres unmarked)
94.7
2. O=C1Nc2ccccc2/C1=C1/Nc2ccc(C(=O)NCC3CCN(C(=O)CCl)CC3)cc2C1=O
54.3
3. [2H]C([2H])([2H])OCC1(CO)C(=O)C2CCN1CC2 (centres unmarked)
98.5
4. CN(NC(=O)CC(=O)NN(C)C(=S)c1ccccc1)C(=S)c1ccccc1
94.5
5. COc1ccc(Cl)cc1C(=O)NCCc1ccc(S(=O)(=O)NC(=O)NC2CCCCC2)cc1 [LX-9335, glyburide]
85.2
6. O=C1C2=C(CCN(Cc3ccccc3)C2)N2CCN=C2N1Cc1ccc(F)cc1F
52.8

// query // fetch viability at 1.1 µM given entry C=C1CC[C@@H]2[C@](C)(CO)[C@H](O)CC[C@@]2(C)[C@@H]1C/C=C1/C(=O)OC[C@H]1O [LX-6800, Andrographolide]
// result 81.6

// query // fetch viability at 1.1 µM given entry CC12CCN(CC1)C(CN(C1CC1)S(C)(=O)=O)C2=O (centres unmarked)
// result 103

// query // fetch viability at 1.1 µM given entry Cn1cc(C2=C(c3cn(C4CCN(Cc5ccccn5)CC4)c4ccccc34)C(=O)NC2=O)c2ccccc21
// result 75.7

// query // fetch viability at 1.1 µM given entry O=C1[C@H](CC[C@H](O)c2ccc(F)cc2)[C@@H](c2ccc(O)cc2)N1c1ccc(F)cc1
// result 98.3

// query // fetch viability at 1.1 µM given entry CN1CCCC1
// result 102

----------
- Test system: senescent cells
- experimental_details: Viability of senescent cells (CellTiter-Glo), Example 17, Table 13
- setup_conditions: Homo sapiens, read-out: Survival (%)
measurement_label: viability at 1.1 µM (%)
Form entry: value (%) — number only.

Worked set:
1) CC(C)C[C@H](CN)CC(=O)O [LX-9131, Pregabalin]
81.9
2) CC(C)(CCCCCC(O)CCCCCC(C)(C)C(=O)O)C(=O)O [LX-9602, Bempedoic acid]
113

Read the next record carefully.
// query // fetch viability at 1.1 µM given entry CC1(C)[C@H]2COc3ccc4ccccc4c3[C@H]2N=C2SC(c3ccccc3)=C(c3ccccc3)N21 [LX-5201]
// result 102

----------
- Tested on: naturally aged mice
- experimental_details: Anti-aging evaluation in naturally aged mice, Example 31, Table 55
- Type: in vivo, mouse
- setup_conditions: liver, untreated = 100%
Classification by Liver p16 mRNA follows these ranges: lo = under 60%, med = from 60% up to 70%, hi = 70% and over

// query Determine which band this compound sits in: CC1(C)[C@H]2COc3ccc4ccccc4c3[C@H]2N=C2SC(c3ccccc3)=C(c3ccccc3)N21 [LX-5201]
// result lo

// query Determine which band this compound sits in: C[C@@H](C(=O)Nc1ccc(Cl)cc1)[C@H]1CC[C@@H](c2ccnc3ccc(F)cc32)CC1 [LX-8805, Linrodostat]
// result lo

// query Determine which band this compound sits in: C#CC(=O)N1[C@@H](CCCC)Cc2cc(OC)ccc2[C@@H]1c1ccc(NC23CC4CC(CC(C4)C2)C3)cc1 [LX-5411]
// result med

// query Determine which band this compound sits in: O=C(C(C[N+](=O)[O-])=NO)N1CCN(C(c2ccc(Cl)cc2)c2ccc(Cl)cc2)CC1 [LX-403]
// result lo

// query Determine which band this compound sits in: CCn1c(C#CCNc2ccccc2)cc2cc(CNC)ccc21 [LX-905]
// result med

// query Determine which band this compound sits in: COC(=O)[C@H]1Cc2c([nH]c3ccccc23)[C@H](c2ccc(S(C)(=O)=O)cc2)N1C(=O)CCl [LX-5401]
// result hi

// query Determine which band this compound sits in: CN(Cc1cnc2nc(N)nc(N)c2n1)c1ccc(C(=O)N[C@@H](CCC(=O)O)C(=O)O)cc1 [LX-2901, Methotrexate]
// result med

// query Determine which band this compound sits in: CCc1nc(C(N)=O)c(Nc2ccc(N3CCC(N4CCN(C)CC4)CC3)c(OC)c2)nc1NC1CCOCC1 [LX-3303, Gilteritinib]
// result med

----------
- System: senescent A549 cells
- experimental_details: Viability of senescent A549 cells (CellTiter-Glo), Example 18, Table 15
- setup_conditions: 1.1 μM; doxorubicin-induced senescent A549 cells; 0 μM = 100%
Measured Survival (%) values are reported for all entries that follow.
Form entry: value (%) — number only.

1. Nc1cc(COc2c(Cl)cc(C[C@H](N)C(=O)O)cc2Cl)c2oc(-c3ccccc3)nc2c1 [LX-6233, Nanvuranlat]
91.8
2. COC[C@]1(CO)C(=O)[C@H]2CC[N@]1[C@H](C)C2 [LX-5731]
94.4
3. CCCCCCCCCCCCCCCCCCCC(=O)N[C@H]1CC[C@@]2(C)[C@@H](C1)C[C@@H](O)[C@@H]1[C@@H]2C[C@H](O)[C@]2(C)[C@@H]([C@H](C)CCC(=O)O)CC[C@@H]12 [LX-9343, Icomidocholic acid]
103.7
4. CN(CCOc1ccc(CC2SC(=O)NC2=O)cc1)c1ccccn1 (centres unmarked) [LX-9423, Rosiglitazone]
82.1

Read the next record carefully.
// query // fetch Survival (%) given entry CC(=O)[O-].CC(=O)[O-].CCc1c(CC)c2cc3nc(cnc4cc(OCCOCCOCCOC)c(OCCOCCOCCOC)cc4ncc4nc(cc1[n-]2)C(CCCO)=C4C)C(C)=C3CCCO.O.[Gd+3] [LX-5211, Motexafin Gadolinium]
// result 102.8

----------
- Test system: naturally aged mice
- experimental_details: Anti-aging evaluation in naturally aged mice, Example 31, Table 55;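 also: Vehicle-dosed control mice received solution alone at matching volume, values compare test-compound-treated aged mice against that control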
- Type: in vivo, mouse
- setup_conditions: joint, untreated = 1.0
measurement_label: Joint Col2a1 mRNA

Worked set:
1. Cn1cc(C[C@@H](N)C(=O)O)c2ccccc21 [LX-8801, Indoximod]
1.7 fold
2. CCN(CC)C(=S)SSC(=S)N(CC)CC [LX-1601, Disulfiram]
2.0 fold

// query // fetch Joint Col2a1 mRNA given entry O=C(C(C[N+](=O)[O-])=NO)N1CCN(C(c2ccc(Cl)cc2)c2ccc(Cl)cc2)CC1 [LX-403]
// result 3.4 fold

// query // fetch Joint Col2a1 mRNA given entry O=C(NCc1ccncc1)C12CC3CC(C1)CC(c1ccc(Cl)cc1)(C3)C2 [LX-3106, Opaganib]
// result 2.0 fold

// query // fetch Joint Col2a1 mRNA given entry COc1cc(OC)cc(N(CCNC(C)C)c2ccc3ncc(-c4cnn(C)c4)nc3c2)c1 [LX-1903, Erdafitinib]
// result 1.7 fold

// query // fetch Joint Col2a1 mRNA given entry CC12CCN(CC1)C(CN(C1CC1)S(C)(=O)=O)C2=O (stereo not drawn) [LX-5707]
// result 2.0 fold

// query // fetch Joint Col2a1 mRNA given entry C[S+]([O-])CCCCN=C=S (stereo not drawn) [LX-7103, Sulforaphane]
// result 2.3 fold

// query // fetch Joint Col2a1 mRNA given entry COC(=O)[C@H]1Cc2c([nH]c3ccccc23)[C@H](c2ccc(S(C)(=O)=O)cc2)N1C(=O)CCl [LX-5401]
// result 1.6 fold

// query // fetch Joint Col2a1 mRNA given entry CCNCc1nc2c(O)c(Cl)cc(Cl)c2c(=O)n1C [LX-9421]
// result 2.8 fold
